# Test system: human prostate PC3-mm2 tumor cell line
# ASSAY_PROTOCOL: In vitro cell culture growth assay (MTS), PC3-mm2
# Type: cell-based
# RUN_CONDITIONS: Homo sapiens, PC3MM2, 72 h, MTS cell growth assay, three days after drug treatment; read-out: IC50 PC3-mm2
Where a name gives a salt, the structure may show the parent alone.
Consider the following molecules; for each one, report its pIC50.
Kindly note that pIC50 refers to -log10 of the concentration in mol/L and answer with the value alone.

Any idea what its pIC50 is? The molecule is "O=C(Nc1ccncc1)Nc1ccc(-c2nc(OC3CCOCC3)nc(N3CCOCC3)n2)cc1" 7.80

Try this molecule next: "CCCCc1nc(-c2ccc(NC(=O)Nc3ccc(C(=O)N4CCC(N(C)C)CC4)cc3)cc2)nc(N2CCOCC2)n1" 6.87

Ok, now O=C(Nc1ccncc1)Nc1ccc(-c2nc(N3CCOCC3)nc(N3CC4COC(C3)O4)n2)cc1 (stereo not drawn) 7.08

Item: O=C(Nc1ccncc1)Nc1ccc(-c2nc(N3CCOCC3)nc(N3C(CO)CCC3CO)n2)cc1 (stereo not drawn) 6.97

Same thing, different molecule: "Nc1ccc(NC(=O)Nc2ccc(-c3nc(N4CCOCC4)nc(N4CCOCC4)n3)cc2)cc1" 7.18

How about this molecule: "O=C(Nc1ccc(-c2nc(OC3CCOCC3)nc(N3CCOCC3)n2)cc1)Nc1cccnc1" 7.64

And what about the molecule "O=C(Nc1ccncc1)Nc1ccc(-c2nc(N3CCCCC3)nc(N3CC4CCC(C3)O4)n2)cc1" ? 6.49

What do we get for CC(O)c1ccc(NC(=O)Nc2ccc(-c3nc(N4CCOCC4)nc(N4C[C@H]5C[C@@H]4CN5C(=O)OC(C)(C)C)n3)cc2)cc1 (stereo partly drawn) ? 6.27

And "CC(C)(C)OC(=O)N1CC(Nc2nc(-c3ccc(NC(=O)Nc4ccc(F)cc4)cc3)nc(N3CCOCC3)n2)C1" ? 6.07

Again, but for "CCc1nc(-c2ccc(NC(=O)Nc3ccc(C(=O)Nc4ccc(N5CCN(C)CC5)cc4)cc3)cc2)nc(N2CCOCC2)n1" 7.19

Let us now turn to "Cc1cc(NC(=O)Nc2ccc(-c3nc(N4CCOCC4)nc(N4CCOC[C@@H]4C)n3)cc2)ccn1" 7.06

Also check "CCN(CC)CCOC(=O)c1ccc(NC(=O)Nc2ccc(-c3nc(N4CCOCC4)nc(N4C5CCC4COC5)n3)cc2)cc1" 7.21

Same read-out for "Cc1ccc(NC(=O)Nc2ccc(-c3nc(N4CCOCC4)nc(N4C5CCC4COC5)n3)cc2)cc1" ? 6.52

// repeat for CN(C)CCN(C)C(=O)c1ccc(NC(=O)Nc2ccc(-c3nc(N4CCOCC4)nc(N4CCOCC4)n3)cc2)cc1 [Example 71, hydrochloride] and report 7.74

====

# ASSAY_SYSTEM: PI3K-γ (Homo sapiens, UniProt P48736)
# Sequence (P48736 whole entry, species assumed): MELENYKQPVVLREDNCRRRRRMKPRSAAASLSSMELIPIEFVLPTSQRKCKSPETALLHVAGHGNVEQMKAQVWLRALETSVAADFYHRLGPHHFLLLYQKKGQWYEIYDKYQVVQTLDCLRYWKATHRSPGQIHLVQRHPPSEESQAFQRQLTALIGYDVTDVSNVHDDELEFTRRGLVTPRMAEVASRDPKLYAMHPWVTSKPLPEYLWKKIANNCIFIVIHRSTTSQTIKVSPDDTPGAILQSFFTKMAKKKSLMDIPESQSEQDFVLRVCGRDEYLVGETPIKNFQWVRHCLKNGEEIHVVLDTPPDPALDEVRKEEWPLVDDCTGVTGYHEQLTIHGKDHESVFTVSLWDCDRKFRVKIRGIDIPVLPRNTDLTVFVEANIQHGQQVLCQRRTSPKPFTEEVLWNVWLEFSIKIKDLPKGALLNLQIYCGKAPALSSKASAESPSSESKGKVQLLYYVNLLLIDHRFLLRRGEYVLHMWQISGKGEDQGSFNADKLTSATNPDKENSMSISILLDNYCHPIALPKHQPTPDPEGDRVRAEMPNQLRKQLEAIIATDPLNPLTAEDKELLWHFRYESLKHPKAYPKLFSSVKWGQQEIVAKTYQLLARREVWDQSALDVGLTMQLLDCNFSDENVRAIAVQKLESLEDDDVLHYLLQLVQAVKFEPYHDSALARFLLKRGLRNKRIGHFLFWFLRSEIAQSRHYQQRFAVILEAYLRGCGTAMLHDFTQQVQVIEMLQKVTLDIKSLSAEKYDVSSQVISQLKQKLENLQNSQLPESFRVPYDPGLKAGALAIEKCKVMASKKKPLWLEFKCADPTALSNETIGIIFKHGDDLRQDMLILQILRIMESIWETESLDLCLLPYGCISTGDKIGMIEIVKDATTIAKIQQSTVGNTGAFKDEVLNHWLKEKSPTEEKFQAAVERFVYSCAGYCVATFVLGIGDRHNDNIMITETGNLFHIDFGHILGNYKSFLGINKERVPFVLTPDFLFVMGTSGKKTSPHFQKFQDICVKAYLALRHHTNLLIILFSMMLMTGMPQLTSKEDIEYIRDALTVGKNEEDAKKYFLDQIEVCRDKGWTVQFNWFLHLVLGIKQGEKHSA
# ASSAY_PROTOCOL: PI3K-gamma fluorescence polarization assay
# RUN_CONDITIONS: read-out: IC50 PI3Kγ
MEASURE_NAME: pIC50
Please express pIC50 as -log10 of the molar concentration.

Value lookup for pIC50; key = CN(C)C1CCN(C(=O)Nc2ccc(NC(=O)Nc3ccc(-c4nc(N5CCOCC5)nc(N5CCOCC5)n4)cc3)cc2)CC1 [Example 499] 8.35

Do the same for CN(C)c1ccc(NC(=O)Nc2ccc(-c3nc(N4CCOCC4)nc(N4CCC5(CC4)OCCO5)n3)cc2)cc1 [Example 133] please 5.05

Then this molecule: CN1CCN(c2ccc(NC(=O)Nc3ccc(-c4nc(-c5ccc(NC(=O)Nc6ccncc6)cc5)nc(N5CC6CCC(C5)O6)n4)cc3)cc2)CC1 [Example 148] 6.21

Next molecule up: CCc1nc(-c2ccc(NC(=O)Nc3ccc(C(=O)NCCN(C)C)cc3)cc2)nc(N2CCOCC2)n1 [Example 237] 7.64
